Biological target: α-glucosidase (AG) (Saccharomyces cerevisiae)
Construct: purchased Sigma
Sequence (P53341 whole entry): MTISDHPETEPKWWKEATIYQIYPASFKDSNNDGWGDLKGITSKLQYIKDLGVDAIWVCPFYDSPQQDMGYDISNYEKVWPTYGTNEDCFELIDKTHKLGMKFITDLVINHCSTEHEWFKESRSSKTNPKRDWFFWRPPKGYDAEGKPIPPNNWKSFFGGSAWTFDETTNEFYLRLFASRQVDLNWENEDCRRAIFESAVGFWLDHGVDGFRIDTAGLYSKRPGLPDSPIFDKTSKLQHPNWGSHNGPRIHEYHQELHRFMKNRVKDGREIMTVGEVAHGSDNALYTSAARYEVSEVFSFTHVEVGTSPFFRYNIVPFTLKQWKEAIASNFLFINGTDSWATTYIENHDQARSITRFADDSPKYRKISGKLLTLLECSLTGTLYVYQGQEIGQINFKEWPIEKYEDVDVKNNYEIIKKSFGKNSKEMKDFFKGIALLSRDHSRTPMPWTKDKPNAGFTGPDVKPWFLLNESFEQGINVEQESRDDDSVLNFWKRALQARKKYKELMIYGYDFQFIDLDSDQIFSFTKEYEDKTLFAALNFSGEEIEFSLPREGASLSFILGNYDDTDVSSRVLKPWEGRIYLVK
Test: biochemical
Set-up: species or system S. cerevisiae
Conditions: samples 250 μg/mL in 50% DMSO; read-out: % Inhibition (AGI activity)
Use yes when the recorded inhibition at 250 µg/mL is no lower than 30%; use no when it is lower.

Query string: Answer whether inhibition at 250 µg/mL of CC(C)=CCc1cc2c(cc1O)OC[C@@H]1c3cc4c(cc3O[C@H]21)OCO4 is greater than or equal to 30%.
Result string: yes

Query string: Textbook exercise: given the entry C=C(C)C1Cc2c(ccc3c2O[C@@H]2COc4cc(OC)c(OC)cc4[C@]2(O)C3=O)O1 (some centres unmarked) [Compound 21, 12a-hydroxyrotenone] , state whether its inhibition at 250 µg/mL is greater than or equal to 30%.
Result string: no

Query string: For this compound, is measured inhibition at 250 µg/mL 30% or higher? Oc1cc(O)c2c(c1)O[C@H](c1ccc(O)c(O)c1)[C@@H](O)C2 [Compound 3, (+)-catechin]
Result string: yes

Query string: Say whether O=C1c2cc3ccoc3cc2O[C@@H]2COc3cc4c(cc3[C@H]12)OCO4 shows inhibition at 250 µg/mL of 30% or more.
Result string: yes

Query string: hey, is inhibition at 250 µg/mL for this one >= 30%? OC[C@H]1O[C@@H](OCCc2ccc(O)cc2)[C@H](O)[C@@H](O)[C@@H]1O [Compound 4, salidroside]
Result string: yes

Query string: Quick check, inhibition at 250 µg/mL >= 30%? COc1ccc2c(c1)OCC(c1cc3c(cc1OC)OCO3)C2=O (centres unmarked)
Result string: no

Query string: Form field: inhibition at 250 µg/mL at least 30%? Entry: CC1(C)Oc2cc3c(cc2CC1O)[C@@H]1Oc2cc(O)ccc2[C@@H]1CO3 (some centres unmarked)
Result string: yes

The reported measurements were obtained from paper PMC8438977.
